Reference source: paper PMC9865163

Measured On: Fn1419 (Fusobacterium nucleatum subsp. nucleatum)
Construct: Fn1419 (GeneBank: AAL95612.1, residues 1–395); His-tag (N); made in house; host or cells: E. coli BL21 (DE3)
Sequence (Q8RDT4 whole entry, the tested form may be a part): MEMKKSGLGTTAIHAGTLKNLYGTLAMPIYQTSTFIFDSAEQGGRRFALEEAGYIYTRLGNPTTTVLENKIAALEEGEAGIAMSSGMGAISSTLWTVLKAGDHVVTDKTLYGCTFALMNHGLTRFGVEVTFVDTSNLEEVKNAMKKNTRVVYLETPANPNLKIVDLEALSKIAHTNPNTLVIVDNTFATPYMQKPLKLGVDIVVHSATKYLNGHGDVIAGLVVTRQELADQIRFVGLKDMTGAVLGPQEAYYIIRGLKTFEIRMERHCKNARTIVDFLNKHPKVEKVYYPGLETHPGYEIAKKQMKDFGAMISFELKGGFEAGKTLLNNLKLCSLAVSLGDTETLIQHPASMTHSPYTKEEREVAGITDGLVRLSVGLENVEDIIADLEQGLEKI
Format: biochemical
Recorded Conditions: 100 μM compound, 5.75 nM Fn1419, 500 μM L-cysteine
Quantity Kind: product reduction rate (MGL^Cys activity of Fn1419) (%)

[[record]]
compound = "CN(CC(=O)O)C(=N)N.O [creatine monohydrate]"
measured_on = "Fn1419 (Fusobacterium nucleatum subsp. nucleatum)"
units_label = "%"
value_observed = 11.2

[[record]]
compound = "O=C1c2c(O)cc(O)cc2O[C@H](c2cc(O)c(O)c(O)c2)[C@H]1O [dihydromyricetin]"
measured_on = "Fn1419 (Fusobacterium nucleatum subsp. nucleatum)"
units_label = "%"
value_observed = 89.5

[[record]]
compound = "C[C@@H]1O[C@@H](OC[C@H]2O[C@@H](Oc3c(-c4ccc(O)c(O)c4)oc4cc(O)cc(O)c4c3=O)[C@H](O)[C@@H](O)[C@@H]2O)[C@H](O)[C@H](O)[C@H]1O"
measured_on = "Fn1419 (Fusobacterium nucleatum subsp. nucleatum)"
units_label = "%"
value_observed = 18.2

[[record]]
compound = "O=C(O)c1cc(O)c(O)c(O)c1"
measured_on = "Fn1419 (Fusobacterium nucleatum subsp. nucleatum)"
units_label = "%"
value_observed = 84.8

[[record]]
compound = "CC(=O)N[C@@H](CS)C(=O)O"
measured_on = "Fn1419 (Fusobacterium nucleatum subsp. nucleatum)"
units_label = "%"
value_observed = 12

[[record]]
compound = "COC(=O)c1cc(O)c(O)c(O)c1 [methyl gallate]"
measured_on = "Fn1419 (Fusobacterium nucleatum subsp. nucleatum)"
units_label = "%"
value_observed = 81.5

[[record]]
compound = "CNCC(O)c1ccc(O)cc1 (centres unmarked) [synephrine]"
measured_on = "Fn1419 (Fusobacterium nucleatum subsp. nucleatum)"
units_label = "%"
value_observed = 32.4

[[record]]
compound = "Oc1cccc(O)c1O"
measured_on = "Fn1419 (Fusobacterium nucleatum subsp. nucleatum)"
units_label = "%"
value_observed = 89.8

[[record]]
compound = "O=c1c(O)c(-c2ccc(O)cc2)oc2cc(O)cc(O)c12"
measured_on = "Fn1419 (Fusobacterium nucleatum subsp. nucleatum)"
units_label = "%"
value_observed = 40.4

[[record]]
compound = "CCOC(=O)c1cc(O)c(O)c(O)c1 [ethyl gallate]"
measured_on = "Fn1419 (Fusobacterium nucleatum subsp. nucleatum)"
units_label = "%"
value_observed = 81.9

[[record]]
compound = "COc1cc(/C=C/C(=O)CC(=O)/C=C/c2ccc(O)c(OC)c2)ccc1O"
measured_on = "Fn1419 (Fusobacterium nucleatum subsp. nucleatum)"
units_label = "%"
value_observed = 53.9

